Test: Anti-ulcer activity: ulcer caused by aspirin
Type: in vivo, rat (male Wistar)
Conditions: 100 mg/kg I.P.; aspirin 192 mg/kg per os; standardised to control batch and cimetidine (index 1)
Description: The experiment is carried out on male Wistar rats of 180 to 200 g. The products to be tested are administered at 100 mg/kg I.P. (unless indicated to the contrary in Table IV). At t=0, the rats are made to fast and a first administration of the product to be tested is made. At t=18 hours, 2 ml of an ulcer-forming suspension with 192 mg of aspirin/kg are administered per os then a second administration of the product to be tested is made. […]
Listed here: items and their measured Ulcer index.
Assay Readout: Ulcer index

[[record]]
compound = "COc1ccc(C(=O)c2ccc(O[C@@H]3OC[C@@H](O)[C@H](O)[C@H]3O)cc2)cc1"
assay_readout = "Ulcer index"
endpoint_result = 0.69

[[record]]
compound = "Cc1ccc(C(O)c2ccc(O[C@@H]3OC[C@@H](O)[C@H](O)[C@H]3O)cc2)cc1 (stereo partly drawn)"
assay_readout = "Ulcer index"
endpoint_result = 0.57

[[record]]
compound = "CC(=O)O[C@@H]1[C@@H](OC(C)=O)[C@H](Oc2ccc(C(=O)c3ccc(Cl)cc3Cl)cc2)OC[C@H]1OC(C)=O"
assay_readout = "Ulcer index"
endpoint_result = 0.91

